The origin of these recorded values is paper PMC11678425.

studyTarget: hSERT S438T (Homo sapiens, UniProt P31645, S438T)
Construct: forward and reverse primers were used to amplify a full-length hSERT; expressed in transfected cells; host or cells: HeLa
Sequence (P31645 whole entry S438T): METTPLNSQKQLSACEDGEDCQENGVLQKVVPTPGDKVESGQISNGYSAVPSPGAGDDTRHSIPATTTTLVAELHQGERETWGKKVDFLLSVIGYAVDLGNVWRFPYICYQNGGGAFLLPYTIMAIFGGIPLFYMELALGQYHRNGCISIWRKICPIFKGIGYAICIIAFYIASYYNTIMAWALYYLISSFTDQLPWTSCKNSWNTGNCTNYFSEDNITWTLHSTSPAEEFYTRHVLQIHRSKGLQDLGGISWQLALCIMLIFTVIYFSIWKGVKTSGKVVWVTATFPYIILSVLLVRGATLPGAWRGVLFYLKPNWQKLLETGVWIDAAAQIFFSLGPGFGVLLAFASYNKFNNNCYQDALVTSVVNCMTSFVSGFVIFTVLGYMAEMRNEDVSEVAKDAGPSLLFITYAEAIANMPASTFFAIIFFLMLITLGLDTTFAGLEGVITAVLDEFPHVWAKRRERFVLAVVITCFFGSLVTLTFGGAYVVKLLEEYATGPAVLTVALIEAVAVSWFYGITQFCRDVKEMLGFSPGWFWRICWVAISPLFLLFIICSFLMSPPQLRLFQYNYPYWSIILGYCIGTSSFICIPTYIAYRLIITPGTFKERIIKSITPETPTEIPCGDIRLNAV
assayNotes: ASP^+ binding, hSERT S438T
testSettings: S1 site mutant, read-out: SYR IC50 for Binding
measuredAttribute: IC50 (µM)
Supply the numeric figure in µM, leaving out any unit text.

What the record says about COc1cc([C@@H]2OC[C@@H]3[C@H]2CO[C@H]3c2cc(OC)c(O)c(OC)c2)cc(OC)c1O [SYR, (-)-syringaresinol] : IC50 is 2.32

---

studyTarget: hSERT Q111N (Homo sapiens, UniProt P31645, Q111N)
Construct: forward and reverse primers were used to amplify a full-length hSERT; expressed in transfected cells; host or cells: HeLa cells, transient, pcDNA3.1
Sequence (P31645 whole entry Q111N): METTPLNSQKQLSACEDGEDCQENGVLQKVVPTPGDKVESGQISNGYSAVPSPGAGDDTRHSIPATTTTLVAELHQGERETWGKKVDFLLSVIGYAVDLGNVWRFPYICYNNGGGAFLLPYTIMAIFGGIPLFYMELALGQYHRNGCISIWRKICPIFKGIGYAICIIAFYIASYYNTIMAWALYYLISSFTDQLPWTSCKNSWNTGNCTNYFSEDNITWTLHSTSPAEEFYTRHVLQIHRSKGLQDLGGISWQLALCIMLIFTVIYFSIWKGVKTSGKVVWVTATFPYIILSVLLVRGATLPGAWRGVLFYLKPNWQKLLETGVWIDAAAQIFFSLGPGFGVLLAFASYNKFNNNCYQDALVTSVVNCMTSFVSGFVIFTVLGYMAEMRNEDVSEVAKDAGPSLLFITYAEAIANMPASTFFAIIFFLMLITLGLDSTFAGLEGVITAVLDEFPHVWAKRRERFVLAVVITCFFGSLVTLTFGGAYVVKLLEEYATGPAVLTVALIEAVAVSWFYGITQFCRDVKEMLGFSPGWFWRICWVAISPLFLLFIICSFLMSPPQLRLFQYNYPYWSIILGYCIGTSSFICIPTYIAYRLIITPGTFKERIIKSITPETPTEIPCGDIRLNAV
assayNotes: ASP^+ binding, hSERT Q111N
testSettings: S2 site mutant, read-out: SYR IC50 for Binding
measuredAttribute: IC50 (µM)
Kindly answer with a numeric value in µM, unit omitted.

IC50 measured on COc1cc([C@@H]2OC[C@@H]3[C@H]2CO[C@H]3c2cc(OC)c(O)c(OC)c2)cc(OC)c1O [SYR, (-)-syringaresinol] = 115
